Overview of recorded kon for various binders
target: T1, mouse DLL4 extracellular domain (mouse, UniProt Q9JI71 27-532); experiment: SPR (Biacore)
T1 construct: extracellular domain; also called muDLL4 ECD; murine DLL4
T1 sequence (Q9JI71 27-532): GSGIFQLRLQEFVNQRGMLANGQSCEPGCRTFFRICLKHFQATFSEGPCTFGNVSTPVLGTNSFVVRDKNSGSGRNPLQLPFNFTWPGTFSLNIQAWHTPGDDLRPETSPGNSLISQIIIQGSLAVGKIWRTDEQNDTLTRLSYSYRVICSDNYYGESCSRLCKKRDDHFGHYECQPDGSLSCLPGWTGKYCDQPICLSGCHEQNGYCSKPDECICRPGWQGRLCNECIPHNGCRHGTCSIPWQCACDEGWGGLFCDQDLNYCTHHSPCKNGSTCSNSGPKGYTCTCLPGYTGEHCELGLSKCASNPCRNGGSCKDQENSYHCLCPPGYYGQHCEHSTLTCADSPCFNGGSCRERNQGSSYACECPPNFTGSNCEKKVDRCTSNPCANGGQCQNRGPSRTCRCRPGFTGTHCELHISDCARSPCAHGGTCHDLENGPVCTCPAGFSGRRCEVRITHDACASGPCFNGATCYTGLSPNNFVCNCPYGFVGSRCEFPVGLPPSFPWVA
The reply should contain only the number, in M⁻¹ s⁻¹.

**Q:** Which value of kon has been reported for h1A11.A8 (antibody, V domains shown, also called h1A11.A8 VH / h1A11VL.1) VH: EVQLVESGGGLVQPGGSLRLSCAASGFTFGNFPMSWVRQAPGKGLEWVASISSSDSWATIGDSVKGRFTISRDNAKNSLYLQMNSLRAEDTAVYYCSRGYYNSPFAYWGQGTLVTVSS VL: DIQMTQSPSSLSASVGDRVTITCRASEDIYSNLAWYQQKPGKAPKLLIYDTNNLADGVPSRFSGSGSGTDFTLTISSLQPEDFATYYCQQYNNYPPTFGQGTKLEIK in the records?
**A:** 187000

**Q:** Which value of kon has been reported for h1A11.B5 (antibody, V domains shown, also called h1A11.B5 VH / h1A11.B5 VL) VH: EVQLVESGGGLVQPGGSLRLSCAASGFTFRYFPMSWVRQAPGKGLEWVASISGSDGWASYRDSVKGRFTISRDNAKNSLYLQMNSLRAEDTAVYYCARGYYNSPFASWGQGTLVTVSS VL: DIQMTQSPSSLSASVGDRVTITCRASQDIWNNLAWYQQKPGKSPKLLIFDTSYLADGVPSRFSGSGSGTDFTLTISSLQPEDFATYYCQQYDWYPPTFGQGTKLEIK in the records?
**A:** 145000

**Q:** Which value of kon has been reported for h1A11.G3 (antibody, V domains shown, also called h1A11.G3 VH / h1A11.E12 VL) VH: EVQLVESGGGLVQPGGSLRLSCAASGFTFRYFPMSWVRQAPGKGLEWVASISGSDGWASYRDSVKGRFTISRDNAKNSLYLQMNSLRAEDTAVYYCARGYYNSPFAYWGQGTLVTVSS VL: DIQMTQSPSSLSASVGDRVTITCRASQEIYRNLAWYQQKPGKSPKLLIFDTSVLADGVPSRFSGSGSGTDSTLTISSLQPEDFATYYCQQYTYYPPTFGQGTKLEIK in the records?
**A:** 117000

Attribution: patent US20110217237A1
